Consider the following binders; for each one, report its cAMP EC50 (nM) Data Set 3.
assayed.system: human cannabinoid receptor type 1 (CB1) (human, UniProt P21554 1-472)
Sequence (P21554 whole entry): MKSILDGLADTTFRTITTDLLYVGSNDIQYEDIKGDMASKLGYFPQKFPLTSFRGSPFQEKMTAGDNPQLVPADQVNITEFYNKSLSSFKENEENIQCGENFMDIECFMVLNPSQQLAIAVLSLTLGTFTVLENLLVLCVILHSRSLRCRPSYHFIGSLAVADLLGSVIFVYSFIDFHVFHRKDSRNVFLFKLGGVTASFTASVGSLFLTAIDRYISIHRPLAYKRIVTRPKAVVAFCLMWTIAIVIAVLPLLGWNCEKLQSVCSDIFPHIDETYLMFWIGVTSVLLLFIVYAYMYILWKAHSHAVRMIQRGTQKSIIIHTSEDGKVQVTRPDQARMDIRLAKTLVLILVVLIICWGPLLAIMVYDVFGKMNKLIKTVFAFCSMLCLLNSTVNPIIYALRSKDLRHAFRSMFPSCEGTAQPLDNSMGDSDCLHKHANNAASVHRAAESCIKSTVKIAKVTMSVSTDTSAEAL
experiment: cell-based or functional assay
Give bare numbers, in nM.

[[record]]
binder = "M1 mouse anti-huCB-1 antibody (antibody, V domains shown) VH: QVQLQQSGAELVRPGVSVKISCKGSGYTFTDHALHWVKQSQARSLEWIGIISTYYGDATYNQKFKGKATMTVDKSSSTAYMELARLTSEDSAFYYCARGGLYYGTNYRAMDYWGQGTSVTVSS VL: DIVMTQSQKFMSTSVGDRVSVTCKASQNVGSNVAWYQQKPGQSPKALIYSASYRYSGVPDRFTGSGSGTDFTLTISNVQSEDLAEYFCQQYNNYPFTFGSGTKLEIK"
scale_unit = "nM"
result_number = 150

[[record]]
binder = "M2 mouse anti-huCB-1 antibody (antibody, V domains shown) VH: EVQLQQSGPELVKPGTSVKISCKASGYTFTDYNMHWVKLGKSLEWIGYFYPDDGGSGYNQKFKGKATLTIDKSSSTAYMELHSLTSEDSAVYYCARGYGNSWGTYWGQGTLVTVSA VL: EIVLTQSPTTMAASPGEKITITCSASSRISSNYLYWYQQKPGFSPKLLIYRTSNLASGVPARFSGSGSGTSYSLTIGTMEAEDVATYYCQQGSSIPYTFGGGTKLEIK"
scale_unit = "nM"
result_number = 270


Now look at this one.
Exam item: Name the reported cAMP EC50 (nM) Data Set 3 value associated with the binder M5 mouse anti-huCB-1 antibody (antibody, V domains shown, The humanized M5-H1 and M5-H2 carry the CDRs of the un-numbered VL, so that one may be the functional light chain) VH: QVHLQQSGAELVRPGSSVKISCKASGYEFSYYWMNWVKQRPGQGHEWIGQIYPGDGDTNYNGKFKGKATLTADKSSSTAYMQLSSLTSEDSAVYFCARGREAAWFAYWGQGTLVTVSA VL: DIVLAQSPASLAVSLGQRATISCRASQSVSSFRYSYLHWYQQKPGQPPRLLIKYASNLESGVPARFSGSGSGTDFTLNIHPVEEEDTATYFCQHSWEIPFTFGSGTKLEIKR
Marked response: 170

Data origin, for the record: patent US20220396620A1
